# run-description: Bioavailability in CD1 mouse at 1 mg/kg, iv and 2 mg/kg, po
# Type: ADME, organism-based
# applied-conditions: in vivo
reported-endpoint: bioavailability
Write the numeric value and append its unit.

Sample answers from the record:
- COc1ncc(-c2ccc(C(=O)O)cc2C)cc1-c1ccc(C(F)(F)F)cc1[C@@H]1CC[C@H]2[C@@H](c3cc(C(F)(F)F)cc(C(F)(F)F)c3)OC(=O)N12: 43%
- COc1ccc(-c2ccc(C(=O)O)cc2C)cc1-c1cnc(N(C)C)nc1[C@@H]1CC[C@H]2[C@@H](c3cc(C(F)(F)F)cc(C(F)(F)F)c3)OC(=O)N12: 140%

# get_value(readout='bioavailability', item= `COc1cc(F)c(-c2ccc(C(=O)O)cc2C)cc1-c1ccc(C(F)(F)F)cc1[C@@H]1CC[C@H]2[C@@H](c3cc(C(F)(F)F)cc(C(F)(F)F)c3)OC(=O)N12` )
60%
